# study system: UniProtKB P28223
# assay summary: Receptor Selection and Amplification (R-SAT) functional antagonist assay
# conditions used: R-SAT, transfected NIH3T3 cells; guidance: high affinity pKi≥8.4, moderate affinity pKi≥7.7
# 5-HT2a pKi annotations
// keep it numeric: no unit symbol after the value

Reference set, count: 3
1. CCCCOc1ccc(COC(=O)N(Cc2ccc(F)cc2F)C2CCN(C)CC2)cc1 [Compound 40]	8.9
2. C=CCOc1ccc(COC(=O)N(Cc2ccc(F)cc2F)C2CCN(C)CC2)cc1 [Compound 26]	9.3
3. CC(C)Oc1ccc(COC(=O)N(Cc2ccc(F)cc2)C2CCN(C)CC2)cc1 [Compound 12]	9.6

Memo: CC(C)COc1ccc(COC(=O)N(Cc2ccc(F)c(F)c2F)C2CCN(C)CC2)cc1 [Compound 37] , reported 5-HT2a pKi: 8.9

* * *

# 5-HT2a pKi annotations
# study system: 5-HT2A receptor (Homo sapiens (Human), UniProt P28223)
# Sequence (P28223 whole entry): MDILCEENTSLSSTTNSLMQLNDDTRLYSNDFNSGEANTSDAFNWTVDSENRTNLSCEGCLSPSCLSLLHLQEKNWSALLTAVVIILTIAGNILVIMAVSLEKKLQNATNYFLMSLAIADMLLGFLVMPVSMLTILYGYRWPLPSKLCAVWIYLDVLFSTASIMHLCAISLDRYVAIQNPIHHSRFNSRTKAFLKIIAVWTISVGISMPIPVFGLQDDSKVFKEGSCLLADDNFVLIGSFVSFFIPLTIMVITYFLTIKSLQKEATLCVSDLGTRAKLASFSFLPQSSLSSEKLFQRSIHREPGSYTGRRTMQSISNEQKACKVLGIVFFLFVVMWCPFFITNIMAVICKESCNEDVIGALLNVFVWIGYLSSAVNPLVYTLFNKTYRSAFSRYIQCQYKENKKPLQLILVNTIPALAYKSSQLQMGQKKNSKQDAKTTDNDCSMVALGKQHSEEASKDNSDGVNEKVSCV
# assay summary: Receptor Selection and Amplification (R-SAT) functional antagonist assay
# conditions used: R-SAT, transfected NIH3T3 cells; guidance: high affinity pKi≥8.4, moderate affinity pKi≥7.7

1. COc1ccc(COC(=O)N(Cc2ccc(F)cc2F)C2CCN(C)CC2)cc1 [Compound 15]	9.3

Turning to the following molecule.
Memo: COc1ccc(CSC(=O)N(Cc2ccc(F)cc2F)C2CCN(C)CC2)cc1 [Compound 16] , reported 5-HT2a pKi: 7.6

* * *

# Ki annotations
# study system: 5-HT2A receptor (Homo sapiens (Human))
# assay summary: Receptor Selection and Amplification (R-SAT) functional antagonist assay
Please state the figure in µM; there is no need to write the unit.

Memo: CC(C)Oc1ccc(COC(=O)N(Cc2ccc(F)cc2)[C@H]2CCN3CCC[C@H]3C2)cc1 , reported Ki: 1.58e-05

Memo: CC(C)Oc1ccc(COC(=O)N(Cc2ccc(F)cc2C(F)(F)F)C2CCN(C)CC2)cc1 , reported Ki: 2000

Memo: COc1ccc(CN(C(=O)OCc2ccc(OC(C)C)cc2)C2CCN(C)CC2)c(F)c1 , reported Ki: 0.00251

Memo: CC(C)COc1ccc(CCOC(=O)N(Cc2ccc(F)cc2)[C@H]2CCN(C)C[C@H]2F)cc1 (racemic) [10a/10b] , reported Ki: 0.0158

* * *

# study system: 5-HT2A receptor (Homo sapiens (Human), UniProt P28223)
# assay summary: Receptor Selection and Amplification (R-SAT) functional antagonist assay
readout label: 5-HT2a pKi
// keep it numeric: no unit symbol after the value

Reference set, count: 3
1. CC(C)COc1ccc(CC(=O)N(Cc2ccc(C(F)(F)F)cc2F)C2CCN(C)CC2)cc1.O=C(O)C(F)(F)F [Compound 69]	7.7
2. CN1CCC(N(Cc2ccc(F)cc2F)C(=O)OCc2ccc(OC(C)(C)C)cc2)CC1.O=C(O)C(F)(F)F [Compound 72]	10.0
3. Cc1cc(F)ccc1CN(C(=O)OCc1ccc(OC(C)C)cc1)C1CCN(C)CC1.O=C(O)C(F)(F)F [Compound 56]	7.8

Memo: CC(C)Oc1ccc(CC(=O)N(Cc2ccc(F)c(F)c2F)C2CCN(C)CC2)cc1.O=C(O)C(F)(F)F [Compound 34] , reported 5-HT2a pKi: 7.4

Memo: CC(C)Oc1ccc(COC(=O)N(Cc2ccc(C(F)(F)F)cc2Cl)C2CCN(C)CC2)cc1.O=C(O)C(F)(F)F [Compound 78] , reported 5-HT2a pKi: 7.6

Memo: CC(C)Oc1ccc(COC(=O)N(Cc2ccc(F)cc2F)C2CCNCC2)cc1.O=C(O)C(F)(F)F [Compound 11] , reported 5-HT2a pKi: 9.6

Memo: COc1cc(F)c(CN(C(=O)Cc2ccc(OCC(C)C)cc2)C2CCN(C)CC2)c(F)c1.O=C(O)C(F)(F)F [Compound 33] , reported 5-HT2a pKi: 7.5

Memo: CC(C)COc1ccc(CC(=O)N(Cc2ccc(Cl)cc2F)C2CCN(C)CC2)cc1.O=C(O)C(F)(F)F [Compound 31] , reported 5-HT2a pKi: 7.3

Memo: CN1CCC(N(Cc2ccc(F)cc2F)C(=O)OCc2ccc(OCCCF)cc2)CC1.O=C(O)C(F)(F)F [Compound 27] , reported 5-HT2a pKi: 9.8

Memo: COc1ccc(CN(C(=O)OCc2ccc(OC(C)C)cc2)C2CCN(C)CC2)c(Cl)c1.O=C(O)C(F)(F)F [Compound 57] , reported 5-HT2a pKi: 7.8

Memo: CCOc1ccc(CC(=O)N(Cc2ccc(F)cc2F)C2CCN(C)CC2)cc1.O=C(O)C(F)(F)F [Compound 23] , reported 5-HT2a pKi: 7.8

Memo: CN1CCC(N(Cc2ccc(F)cc2F)C(=O)OCc2ccc(C(C)(F)F)cc2)CC1.O=C(O)C(F)(F)F [Compound 73] , reported 5-HT2a pKi: 9.4

Memo: CCCCOc1ccc(CC(=O)N(Cc2ccc(F)cc2F)C2CCN(C)CC2)cc1.O=C(O)C(F)(F)F [Compound 24] , reported 5-HT2a pKi: 7.2

Memo: CC(=O)O.COc1cc(F)c(CN(C(=O)OCc2ccc(OCC(C)C)cc2)C2CCN(C)CC2)c(F)c1 [Compound 36] , reported 5-HT2a pKi: 9.0

Memo: CN1CCC(N(Cc2ccc(F)cc2F)C(=O)OCc2ccc(OC(CF)CF)cc2)CC1.O=C(O)C(F)(F)F [Compound 28] , reported 5-HT2a pKi: 10.1

* * *

# study system: 5-HT2A receptor (Homo sapiens (Human), UniProt P28223)
# assay summary: Receptor Selection and Amplification (R-SAT) functional antagonist assay;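 further: Read-out is β-galactosidase marker gene activity with ONPG substrate, measured after five days of growth in 96-well plates holding the test compound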
readout label: Ki (nM)
Please state the figure in nM; there is no need to write the unit.

Reference set, count: 5
1) CC(C)Oc1ccc(COC(=O)N(Cc2ccc(F)cc2)[C@H]2CCNC[C@H]2F)cc1 (racemic) [3a/3b]	0.1
2) CC(C)COc1ccc(COC(=O)N(Cc2ccc(F)cc2)[C@H]2CCN(C)C[C@H]2F)cc1 (racemic) [6a/6b]	0.251
3) CC(C)COc1ccc(CC(=O)N(Cc2ccc(Cl)cc2C(F)(F)F)C2CCN(C)CC2)cc1 [Compound 50, trifluoroacetic acid]	200000
4) CC(C)COc1ccc(COC(=O)N(Cc2ccc(F)cc2)[C@H]2CCNC[C@H]2F)cc1 (racemic) [5a/5b]	0.251
5) CC(C)COc1ccc(CCOC(=O)N(Cc2ccc(F)cc2)[C@H]2CCNC[C@H]2F)cc1 (racemic) [9a/9b]	63.1

Memo: CC(C)Oc1ccc(COC(=O)N(Cc2ccc(F)cc2)[C@H]2CCN(C)C[C@H]2F)cc1 (racemic) [4a/4b] , reported Ki: 0.1

* * *

# study system: 5-HT2A receptor (Homo sapiens (Human))
# assay summary: Receptor Selection and Amplification (R-SAT) functional antagonist assay
# conditions used: R-SAT, transfected NIH3T3 cells; guidance: high affinity pKi≥8.4, moderate affinity pKi≥7.7
readout label: 5-HT2a pKi

1) COc1ccc(CN(C(=O)Cc2ccc(OCC(C)C)cc2)C2CCN(C)CC2)c(F)c1 [Compound 47]	8.1

5-HT2A receptor (Homo sapiens (Human)) assay, molecule CC(C)Oc1ccc(COC(=O)N(Cc2ccc(F)cc2F)C2CCN(C3COC3)CC2)cc1 [Compound 46] , recorded 5-HT2a pKi = 7.6

5-HT2A receptor (Homo sapiens (Human)) assay, molecule Cc1ccc(F)c(CN(C(=O)OCc2ccc(OC(C)C)cc2)C2CCN(C)CC2)c1F [Compound 65] , recorded 5-HT2a pKi = 7.7

5-HT2A receptor (Homo sapiens (Human)) assay, molecule CC(C)Oc1ccc(COC(=O)N(Cc2ccc(F)cc2Cl)C2CCN(C)CC2)cc1 [Compound 63] , recorded 5-HT2a pKi = 8.4

5-HT2A receptor (Homo sapiens (Human)) assay, molecule CC(C)COc1ccc(COC(=O)N(Cc2ccc(F)cc2F)C2CCN(C)CC2)cc1 [Compound 14] , recorded 5-HT2a pKi = 7.6

5-HT2A receptor (Homo sapiens (Human)) assay, molecule CC(C)COc1ccc(CC(=O)N(Cc2ccc(Cl)cc2Cl)C2CCN(C)CC2)cc1.O=C(O)C(F)(F)F [Compound 59] , recorded 5-HT2a pKi = 6.6

5-HT2A receptor (Homo sapiens (Human)) assay, molecule CC(C)COc1ccc(CC(=O)N(Cc2ccc(F)cc2Cl)C2CCN(C)CC2)cc1.O=C(O)C(F)(F)F [Compound 61] , recorded 5-HT2a pKi = 6.7

* * *

# study system: 5-HT2A receptor (Homo sapiens (Human))
# assay summary: Receptor Selection and Amplification (R-SAT) functional antagonist assay
# conditions used: R-SAT, transfected NIH3T3 cells; guidance: high affinity pKi≥8.4, moderate affinity pKi≥7.7
readout label: 5-HT2a pKi
// keep it numeric: no unit symbol after the value

Reference set, count: 6
1) CC(C)COc1ccc(CC(=O)N(Cc2ccc(F)cc2)C2CCN(C)CC2)c(F)c1.O=C(O)C(F)(F)F	8.2
2) CN1CCC(N(Cc2ccc(F)cc2F)C(=O)OCc2ccc(OCCF)cc2)CC1	9.8
3) Cc1cc(F)ccc1CN(C(=O)Cc1ccc(OCC(C)C)cc1)C1CCN(C)CC1.O=C(O)C(F)(F)F	6.7
4) CC(C)Oc1ccc(/C=C/C(=O)N(Cc2ccc(F)cc2F)C2CCN(C)CC2)cc1	7.4
5) CC(C)Oc1ccc(COC(=O)N(Cc2ccc(F)cc2F)C2CCN(C3CC3)CC2)cc1	8.6
6) CC(C)Oc1ccc(COC(=O)N(Cc2ccc(Cl)cc2)C2CCN(C)CC2)cc1	9.7

Memo: CC(C)COc1ccc(COC(=O)N(Cc2ccc(Cl)cc2Cl)C2CCN(C)CC2)cc1 , reported 5-HT2a pKi: 8.0

Memo: CC(C)Oc1ccc(CC(=O)N(Cc2ccc(F)cc2F)C2CCN(C)CC2)cc1.O=C(O)C(F)(F)F , reported 5-HT2a pKi: 8.3
